tested on: HL-60(TB) leukemia; assay: NCI tumour cell line growth inhibition, 48 h
value.kind: log10 of TGI (log10 of the value in µM)
Heads up, the numbers here are log10 of TGI in µM units.

// solved cases for log10 of TGI follow
# compound, log10 of TGI
records = [
    ("NCCCCCCCCn1c2c(c3ccccc3c1=O)C(=O)c1ccccc1-2", 0.79),
    ("CC1=CC=C2c3ccccc3C=CN2C(=O)C1", 1.61),
    ("CC1=C(C(=O)Nc2ccccc2C)C(c2ccc(C3C(C(=O)Nc4ccccc4C)=C(C)NC(C)=C3C(=O)Nc3ccccc3C)cc2)C(C(=O)Nc2ccccc2C)=C(C)N1", 0.79),
    ("C=CCOc1ccc(/C(N=Nc2ccc(C)cc2)=N/NC(=O)c2ccccc2)cc1OC", 1.46),
]

-- ask May I ask what log10 of TGI has been recorded for CC1C(=NO)C(C)C(c2ccccc2)N(N=O)C1c1ccccc1 (centres undefined) ?
-- reply 1.95

-- ask `Cc1ccc(-n2c3nc(=O)n(C)c(=O)c-3nc3ccccc32)cc1` ?
-- reply 1.55

###

tested on: HOP-62 NSCLC; experiment: NCI tumour cell line growth inhibition, 48 h; in the data active means GI50 below about 0.43 µM; inactive means the rest
The reply should name one outcome from Y = active, N = inactive

See these solved cases before continuing.
# structure.smiles, group
rows = [
    ("O=C(NCCc1ccccc1)C(c1ccccc1)(c1ccccc1)c1ccccc1", "N"),
    ("NC(=O)C1c2ccccc2C=Cc2ccccc21", "N"),
]

-- ask I'd appreciate the recorded outcome for `COC(=O)[C@H]1[C@@H](O)[C@@]2(O)c3c(OC)cc(O[C@@H]4O[C@@H]([C@H](O)CO)CO[C@H]4OC)cc3O[C@@]2(c2ccc(OC)cc2)[C@@H]1c1ccccc1` from this test.
-- reply Y

###

test system: NCI/ADR-RES ovarian; assay: NCI tumour cell line growth inhibition, 48 h
value.kind: TGI

// solved cases for TGI follow
# molecule, value.kind, result
rows = [
    ("CC1=CC(=O)CC(C)(C)C1(O)/C=C/C(C)=C/C(=O)O (centres undefined)", "TGI", "> 100 µM"),
    ("CC(=O)OCc1ccc2oc(=O)c(C(=O)Oc3cccc(Cl)c3)cc2c1", "TGI", "> 100 µM"),
    ("Cc1cccc(NC(=S)Nc2ccc([N+](=O)[O-])cc2)n1", "TGI", "> 100 µM"),
    ("CCN1CCN(c2nc3ccccc3nc2C(=O)c2ccc(OC)cc2)CC1", "TGI", "> 100 µM"),
    ("NC(=O)c1ccc(NS(=O)(=O)c2ccc(N)cc2)nc1", "TGI", "> 100 µM"),
    ("CCSC1=N/C(=C\\c2ccco2)C(NN)=N1", "TGI", "> 50 µM"),
    ("CCN(CC)CC.CCOc1ccc(NC(=O)N=C=[N-])cc1.[CH-]1CCCCC1.[CH-]1CCCCC1.[CH-]1CCCCC1.[Cl-].[Sn+4]", "TGI", "0.0559 µM"),
    ("C=C(C)CNC(=S)N(N)c1ccc(OC)cc1", "TGI", "> 100 µM"),
    ("CC(C)(C)N1C(=O)c2ccccc2C1(O)C(F)(F)F (centres undefined)", "TGI", "> 100 µM"),
    ("COc1cc2c(F)nccc2cc1C(=O)N[C@@H](c1ccc(F)c(Cl)c1)[C@@H]1C[C@@H](O)CN1", "TGI", "47 µM"),
]

-- ask May I ask what TGI has been recorded for `O=C1CCCC2=C1CC1=C(CCCC1=O)N2c1ccccc1C(=O)O` ?
-- reply > 100 µM

-- ask `COc1ccc(/C=N/n2c(=O)[nH]c3ccccc3c2=O)cc1` ?
-- reply > 100 µM

-- ask `CC(C)(C)OC(=O)[C@@H]1CCC(=S)N1Cc1ccccc1` ?
-- reply > 100 µM

-- ask C=C[C@]1(O)CCC[C@]2(C)C(=O)CCC12C (some centres undefined) ?
-- reply > 100 µM

-- ask `COc1ccc(CCN2CCCN3C2=Nc2ccccc2S3(=O)=O)cc1` ?
-- reply 6.8 µM

Data provenance is PubChem BioAssay (NCI).
